Molecular target: prolyl endopeptidase (PEP) (Elizabethkingia meningoseptica, UniProt P27028)
Construct: purchased Seikagaku Corporation (Tokyo, Japan)
Sequence (P27028 21-705): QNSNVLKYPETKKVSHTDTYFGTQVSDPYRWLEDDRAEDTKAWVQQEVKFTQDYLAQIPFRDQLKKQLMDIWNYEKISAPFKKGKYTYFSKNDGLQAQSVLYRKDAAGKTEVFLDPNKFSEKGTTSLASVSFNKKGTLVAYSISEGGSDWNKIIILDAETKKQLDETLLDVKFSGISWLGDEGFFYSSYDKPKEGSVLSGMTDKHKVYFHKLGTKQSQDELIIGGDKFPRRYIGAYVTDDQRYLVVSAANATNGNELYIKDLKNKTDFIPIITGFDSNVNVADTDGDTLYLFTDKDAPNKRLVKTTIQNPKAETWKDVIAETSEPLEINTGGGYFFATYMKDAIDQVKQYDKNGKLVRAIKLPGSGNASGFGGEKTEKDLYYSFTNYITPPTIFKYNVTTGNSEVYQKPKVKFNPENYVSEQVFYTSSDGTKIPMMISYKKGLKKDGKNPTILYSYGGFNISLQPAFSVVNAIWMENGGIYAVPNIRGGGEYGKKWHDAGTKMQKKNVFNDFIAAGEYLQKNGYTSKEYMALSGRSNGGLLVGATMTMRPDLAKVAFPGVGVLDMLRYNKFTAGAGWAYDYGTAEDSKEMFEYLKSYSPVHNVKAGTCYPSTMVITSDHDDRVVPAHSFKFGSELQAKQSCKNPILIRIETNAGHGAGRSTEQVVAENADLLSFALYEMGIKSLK
Assay: biochemical
Type: biochemical
Ends that are not written are not given here.
PROPERTY: IC50 (µM)
# number only, unit µM dropped from output

Q. Give its IC50 value. Item: SVDGKEDLIA [PKH11-v1]
A. 2870

Q. Give its IC50 value. Item: SVDGKEDLIW [PKH11]
A. 1810

---

Target: prolyl endopeptidase (PEP) (Elizabethkingia meningoseptica, UniProt P27028)
Construct: purchased Seikagaku Corporation (Tokyo, Japan)
Test: biochemical
Type: biochemical
Conditions: peptide 1 mg/mL; % of control without peptide (100%); pH 7, 30 °C, 30 min; mean ± SD of three replicates; SD
Consider the following substances; for each one, report its PEP Residual Activity (%).

Q. Give its PEP Residual Activity (%) value. Item: Ac-RKWLHFW-NH2 [PACEI53L, synthetic heptapeptide Ac-RKWLHFW-NH2]
A. 71.5 ± 4.5 (a) %

Q. Give its PEP Residual Activity (%) value. Item: Ac-RKWFLHW-NH2 [PACEI49L, synthetic heptapeptide Ac-RKWFLHW-NH2]
A. 46.8 ± 9.1 (b) %

Q. Give its PEP Residual Activity (%) value. Item: Ac-RKWHLFW-NH2 [PACEI51L, synthetic heptapeptide Ac-RKWHLFW-NH2]
A. 71.6 ± 4.9 (a) %

Q. Give its PEP Residual Activity (%) value. Item: Ac-RKWHFLW-NH2 [PACEI50L]
A. 6.4 ± 2.3 (c) %

Q. Give its PEP Residual Activity (%) value. Item: Ac-RKWFHLW-NH2 [PACEI48L, synthetic heptapeptide Ac-RKWFHLW-NH2]
A. 61.4 ± 4.4 (a) %
